The measured values listed here are drawn from patent US20170145113A1.

Molecular target: T1, His-tagged human HtrA1 protease domain (human, UniProt Q92743 161-367)
T1 construct: His-tagged protease domain; also called huHtrA1-PD-His; huHtrA1-PD
T1 sequence (Q92743 other isoform, or with tags, fused parts or gaps limits assumed): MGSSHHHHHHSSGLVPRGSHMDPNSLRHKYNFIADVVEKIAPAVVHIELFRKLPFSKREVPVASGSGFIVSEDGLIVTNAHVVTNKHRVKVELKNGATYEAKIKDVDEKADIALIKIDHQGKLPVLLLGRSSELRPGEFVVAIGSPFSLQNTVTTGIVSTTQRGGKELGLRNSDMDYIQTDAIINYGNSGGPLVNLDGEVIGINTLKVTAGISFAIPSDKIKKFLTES
Assay: BIACORE SPR, single-cycle kinetics; Fab analyte over captured human HtrA1
measurement-type: koff (s⁻¹)
Lab book: enter the figure in s⁻¹, no units written.

# koff of h15H6.v2 LC-N94A LC-P95 Fab (Fab, V domains shown, Produced as Fab; also called AP) VH: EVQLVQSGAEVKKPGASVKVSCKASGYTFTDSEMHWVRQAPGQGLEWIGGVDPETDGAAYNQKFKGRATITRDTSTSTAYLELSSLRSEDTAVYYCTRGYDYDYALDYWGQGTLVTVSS VL: DIQMTQSPSSLSASVGDRVTITCRASSSVNFIHWYQQKPGKAPKPLISATSNLASGVPSRFSGSGSGTDFTLTISSLQPEDFATYYCQQWSSAPWTFGQGTKVEIK = 0.00014

# koff of h15H6.v2 LC-N94E LC-P95 Fab (Fab, V domains shown, Produced as Fab; also called EP) VH: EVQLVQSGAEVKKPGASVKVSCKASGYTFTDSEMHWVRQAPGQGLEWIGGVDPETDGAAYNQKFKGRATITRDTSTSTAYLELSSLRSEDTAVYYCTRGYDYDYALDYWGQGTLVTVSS VL: DIQMTQSPSSLSASVGDRVTITCRASSSVNFIHWYQQKPGKAPKPLISATSNLASGVPSRFSGSGSGTDFTLTISSLQPEDFATYYCQQWSSEPWTFGQGTKVEIK = 0.00017

# koff of h15H6.v2 Fab (Fab, V domains shown, Tested as Fab; also called parent; parental Fab) VH: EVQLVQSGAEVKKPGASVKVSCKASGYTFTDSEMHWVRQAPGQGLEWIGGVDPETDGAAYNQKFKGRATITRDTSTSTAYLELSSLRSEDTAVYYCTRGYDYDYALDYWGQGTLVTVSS VL: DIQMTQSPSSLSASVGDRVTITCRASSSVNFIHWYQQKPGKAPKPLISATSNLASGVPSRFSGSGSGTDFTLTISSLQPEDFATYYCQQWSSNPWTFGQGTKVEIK = 0.00016

# koff of h15H6.v2 LC-N94Q LC-P95 Fab (Fab, V domains shown, Produced as Fab; also called QP) VH: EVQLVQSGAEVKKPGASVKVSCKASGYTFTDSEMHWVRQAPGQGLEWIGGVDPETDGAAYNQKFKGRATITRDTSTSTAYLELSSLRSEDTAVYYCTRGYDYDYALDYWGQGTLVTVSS VL: DIQMTQSPSSLSASVGDRVTITCRASSSVNFIHWYQQKPGKAPKPLISATSNLASGVPSRFSGSGSGTDFTLTISSLQPEDFATYYCQQWSSQPWTFGQGTKVEIK = 0.00029

# koff of h15H6.v2 LC-N94S LC-P95 Fab (Fab, V domains shown, Produced as Fab; also called SP) VH: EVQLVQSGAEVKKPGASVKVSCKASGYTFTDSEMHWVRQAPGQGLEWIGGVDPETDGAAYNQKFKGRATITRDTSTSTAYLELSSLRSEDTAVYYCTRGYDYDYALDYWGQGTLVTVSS VL: DIQMTQSPSSLSASVGDRVTITCRASSSVNFIHWYQQKPGKAPKPLISATSNLASGVPSRFSGSGSGTDFTLTISSLQPEDFATYYCQQWSSSPWTFGQGTKVEIK = 0.00025
